# SUBJECT_OF_TEST: Bcl-xL, Q07817
# Sequence (Q07817 1-209): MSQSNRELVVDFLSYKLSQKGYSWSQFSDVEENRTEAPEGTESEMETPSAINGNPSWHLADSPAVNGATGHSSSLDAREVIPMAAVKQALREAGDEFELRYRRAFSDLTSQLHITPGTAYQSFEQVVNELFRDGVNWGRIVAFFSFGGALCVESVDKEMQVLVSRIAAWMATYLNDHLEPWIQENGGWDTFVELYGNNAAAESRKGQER
# PROCEDURE_DETAILS: peptide SPOT array, c-Myc-tagged receptor at 1 uM or 100 nM, anti-c-Myc-Cy3
Form field: SPOT signal as a fraction of Bim BH3's signal on the same receptor and array (one value per entry).
ASSAY_ENDPOINT: SPOT signal as a fraction of Bim BH3's signal on the same receptor and array

[[record]]
binder = "LGRTGQVCLFDKRGADQHALDQEQRD [ACAP3]"
experimental_result = 0.08

[[record]]
binder = "IGQRQTVVRTLNATGEEIIQQSSKTD [DMD]"
experimental_result = 0.03

[[record]]
binder = "TSRINEVQVNDSLLGDDLLLPAQSTL [SPHKAP]"
experimental_result = 0.05

[[record]]
binder = "FEKLRMIAKEIRHVGRMASVNMDPAL [RAPGEF2]"
experimental_result = 0.19

[[record]]
binder = "QEELQDWVKKIREVAQTADARLTEGK [PLCG1]"
experimental_result = 0.03

[[record]]
binder = "NNNMDVESRTMATMGDTLASRGLLDA [SEC16A]"
experimental_result = 0.04

[[record]]
binder = "LFQLKFTAKQLEKLAKKAEKDSKAEQ [CHMP1A]"
experimental_result = 0.18

[[record]]
binder = "YIVLGLRKTTLQKVLKEVAELVGRVG [NLRX1]"
experimental_result = 0.35

[[record]]
binder = "FKAWGKFGGAFCRYLDEMKEIQERQR [PURB]"
experimental_result = 1.19

[[record]]
binder = "VTLLSEVEKMLSNFLDCVQYKEIVKN [SYNE1]"
experimental_result = 0.11

[[record]]
binder = "RKDAELLCWDLRQSGYPLWSLGREVT [WRAP53]"
experimental_result = 0.07

[[record]]
binder = "RAELTGLARRLADRARKLQETNLRAV [RIMBP3]"
experimental_result = 0.58

[[record]]
binder = "FVGYNSTGAELRHWSDMLANPRRPIA [SYT1]"
experimental_result = 1.41

